Tested on: SNB-75
Assay: NCI tumour cell line growth inhibition, 48 h
Activity calls are given as the source filed them. No stated cut-off is given here; in the data, active = GI50 up to about 1.1 µM and inactive = higher.
Hi there, use one of these labels in your reply, thanks! active, inactive

See these solved cases before continuing.
{"compound": "CCC(=C(c1ccc(OCc2ccccc2)cc1)c1ccc(OCc2ccccc2)cc1)c1ccc(OC)cc1", "class.name": "inactive"}
{"compound": "CC(=O)C1C(c2ccccc2)C2(C)OC(=O)C(C#N)C12C (configuration not stated)", "class.name": "inactive"}
{"compound": "CCSc1n/c(=C\\c2ccco2)c2nnnn12", "class.name": "inactive"}
{"compound": "BrC1(c2ccccc2)C[n+]2c(-c3ccccc3)cc(-c3ccccc3)cc2-c2ccccc21 (configuration not stated)", "class.name": "active"}

Would you mind telling me which call this test gave `CCCCCCCCCCCCCCCCCc1cccc(OCOCCOC)c1CO` ?
inactive

Would you mind telling me which call this test gave `Cc1c2ccccc2c(C)n2c1nc1cc3ccccc3cc12` ?
inactive

Would you mind telling me which call this test gave `O=c1c2cccc3cccc(c4oc5c6cccc7cccc(c(=O)c5c14)c76)c32` ?
inactive

Would you mind telling me which call this test gave `CNC(=O)/C(=C/c1ccc(OC)cc1)c1cc(OC)c(OC)c(OC)c1` ?
inactive
